pKi: −log10 of the molar value.
pKi for Beta-secretase 1 (Homo sapiens), merged from several publications.
Kind request: treat 7 as inclusive, so pKi at 7 or higher is true (1), anything lower is false (0).

Worked examples, 2 compounds total:
>  <compound>
C[C@@]1(c2cc(NC(=O)c3cc4c(cn3)OC(F)(F)O4)ccc2F)CC[C@@](C)(S(=O)(=O)C(F)(F)F)C(N)=N1

>  <label>
true (1)

$$$$
>  <compound>
CN1C(=N)N[C@](C)(c2sc3c(-c4ccc(C5CC(=O)N5)cc4)nccc3c2Cl)CS1(=O)=O (stereo partly shown)

>  <label>
false (0)

$$$$

I'd appreciate it if you could say whether C[C@@]1(c2cc(NC(=O)c3ccc(Cl)cn3)ccc2F)CS(=O)(=O)C2(CC2)C(=N)N1 has pKi at least equal to 7.
true (1)

hey, is pKi for this one >= 7? COc1ccc(C(=O)Nc2ccc(F)c([C@]3(C)CS(=O)(=O)C4(CCN(C)CC4)C(=N)N3)c2)nc1
true (1)
